Molecular target: T1, AFP158/HLA-A*02:01 complex (human)
T1 construct: flowed over the chip in SPR; also called AFP158 pro
Assay: SPR, KD ratio to AS170036 VL1VH1;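 also: crude scFv captured on a sensor chip, peptide–HLA complex passed over at several concentrations, association then buffer dissociation, KD derived from on- and off-rates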
experimental.readout: Affinity increase (fold)
Lab book: enter the figure in fold, no units written.

input: Requested read-out: Affinity increase. Entry: HP110S (scFv, AS170036 VL1VH1 scFv mutein) scFv: QSALTQPRSVSGSPGQSVTISCAGTSSDVGSENYVSWYQQHPGKAPKLMIYQVNKRASGVPDRFSGSKSGNTASLTISGLQAEDEADYYCASYRSSDHNIVFGGGTKLTVLGGGGSGGGGSGGGGSEVQLVESGGGLVQPGGSLRLSCAASGFTFSSYAMSWVRQAPGKGLEWVSTINSGTGSPYYADSVKGRFTISRDNSKNTLYLQMNSLRAEDTAVYYCAKNFFDGSWFLGPSAMDYWGQGTLVTVSSHHHHHH
output: 0.8

input: Next binder up: HP110G (scFv, AS170036 VL1VH1 scFv mutein) scFv: QSALTQPRSVSGSPGQSVTISCAGTSSDVGSENYVSWYQQHPGKAPKLMIYQVNKRASGVPDRFSGSKSGNTASLTISGLQAEDEADYYCASYRSSDHNIVFGGGTKLTVLGGGGSGGGGSGGGGSEVQLVESGGGLVQPGGSLRLSCAASGFTFSSYAMSWVRQAPGKGLEWVSTINSGTGSPYYADSVKGRFTISRDNSKNTLYLQMNSLRAEDTAVYYCAKNFFDGSWFLGPGAMDYWGQGTLVTVSSHHHHHH
output: 1

input: Follow-up entry: HL107M (scFv, AS170036 VL1VH1 scFv mutein) scFv: QSALTQPRSVSGSPGQSVTISCAGTSSDVGSENYVSWYQQHPGKAPKLMIYQVNKRASGVPDRFSGSKSGNTASLTISGLQAEDEADYYCASYRSSDHNIVFGGGTKLTVLGGGGSGGGGSGGGGSEVQLVESGGGLVQPGGSLRLSCAASGFTFSSYAMSWVRQAPGKGLEWVSTINSGTGSPYYADSVKGRFTISRDNSKNTLYLQMNSLRAEDTAVYYCAKNFFDGSWFMGPPAMDYWGQGTLVTVSSHHHHHH
output: 0.7

input: One more binder: HG108Q (scFv, AS170036 VL1VH1 scFv mutein) scFv: QSALTQPRSVSGSPGQSVTISCAGTSSDVGSENYVSWYQQHPGKAPKLMIYQVNKRASGVPDRFSGSKSGNTASLTISGLQAEDEADYYCASYRSSDHNIVFGGGTKLTVLGGGGSGGGGSGGGGSEVQLVESGGGLVQPGGSLRLSCAASGFTFSSYAMSWVRQAPGKGLEWVSTINSGTGSPYYADSVKGRFTISRDNSKNTLYLQMNSLRAEDTAVYYCAKNFFDGSWFLQPPAMDYWGQGTLVTVSSHHHHHH
output: 1.4

input: Here is the next binder: HG56S (scFv, AS170036 VL1VH1 scFv mutein) scFv: QSALTQPRSVSGSPGQSVTISCAGTSSDVGSENYVSWYQQHPGKAPKLMIYQVNKRASGVPDRFSGSKSGNTASLTISGLQAEDEADYYCASYRSSDHNIVFGGGTKLTVLGGGGSGGGGSGGGGSEVQLVESGGGLVQPGGSLRLSCAASGFTFSSYAMSWVRQAPGKGLEWVSTINSGTSSPYYADSVKGRFTISRDNSKNTLYLQMNSLRAEDTAVYYCAKNFFDGSWFLGPPAMDYWGQGTLVTVSSHHHHHH
output: 1.5
